Recorded protein stability index values for a group of variants are listed next.
B1: MATN2 (parent)
chain: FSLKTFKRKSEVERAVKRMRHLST

Variants of: B1
method.description: protein stability index of a GFP-peptide fusion (GPS, HEK-293T) (PSI 1-6); higher = more stable;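 note: lentivirally expressed fusions sorted by FACS into six bins by GFP to DsRed ratio, PSI derived from sequencing read proportions per bin multiplied by bin number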
measurement.setup: c terminus: a fixed tail appended
In your answer, state the number alone without any accompanying words.

Recorded results for 8 variants are shown here.
INSERT INTO results (var, obs_value) VALUES
  ('L22A', 2.81),
  ('T5F', 2.56),
  ('E13Y', 2.94),
  ('L3K', 3.54),
  ('T24I', 2.08),
  ('V12A', 2.36),
  ('S10P', 2.62),
  ('K9F', 2.25);

Please report the recorded protein stability index for L3G .
2.91

Returns the measured protein stability index for the input variant. Input: K9S
2.58

Any idea what protein stability index was measured for E13Q ?
2.9
